Reported values of relative viability for individual entries
Test system: H3255
Assay: relative viability (nuclei count vs DMSO), 5 days (fraction); higher = more cells survive
Conditions: first compound 0.3162 µM
I'd appreciate a reply containing only the number, no unit.

- molecule: "CCN(CC)CCCCNc1ncc2cc(-c3cc(OC)cc(OC)c3)c(NC(=O)NC(C)(C)C)nc2n1 + CC1(C)CCC(c2ccc(Cl)cc2)=C(CN2CCN(c3ccc(C(=O)NS(=O)(=O)c4ccc(N[C@H](CCN5CCOCC5)CSc5ccccc5)c(S(=O)(=O)C(F)(F)F)c4)cc3)CC2)C1 [Navitoclax] (partner 0.5 µM)"
  relative viability: 0.729
- molecule: "O=c1cc(N2CCOCC2)oc2c(-c3cccc4c3sc3ccccc34)cccc12 + O=C(CCCCCCC(=O)Nc1ccccc1)NO [Vorinostat] (partner 1 µM)"
  relative viability: 0.765
- molecule: "O=c1cc(N2CCOCC2)oc2c(-c3cccc4c3sc3ccccc34)cccc12 + C[C@@H](Oc1cc(-c2cnn(C3CCNCC3)c2)cnc1N)c1c(Cl)ccc(F)c1Cl [Crizotinib] (partner 1 µM)"
  relative viability: 0.926
- molecule: "O=c1cc(N2CCOCC2)oc2c(-c3cccc4c3sc3ccccc34)cccc12 + Cc1nc(NC(=O)N2CCC[C@H]2C(N)=O)sc1-c1ccnc(C(C)(C)C(F)(F)F)c1 [Alpelisib] (partner 2 µM)"
  relative viability: 0.685

// query Give a short answer stating reported relative viability for CCN(CC)CCCCNc1ncc2cc(-c3cc(OC)cc(OC)c3)c(NC(=O)NC(C)(C)C)nc2n1 + COc1cc2c(Oc3ccc(NC(=O)C4(C(=O)Nc5ccc(F)cc5)CC4)cc3F)ccnc2cc1OCCCN1CCOCC1 [Foretinib] (partner 0.25 µM) .
// result 0.943

====

Test system: SK-LU-1
Experiment: relative viability (nuclei count vs DMSO), 5 days (fraction); higher = more cells survive
Conditions: first compound 1 µM
observation_type: relative viability
I'd appreciate a reply containing only the number, no unit.

- compound: "O=c1cc(N2CCOCC2)oc2c(-c3cccc4c3sc3ccccc34)cccc12 + CCNC(=O)c1noc(-c2cc(C(C)C)c(O)cc2O)c1-c1ccc(CN2CCOCC2)cc1 [Luminespib] (partner 0.01 µM)"
  measured_target: "SK-LU-1"
  observation_type: "relative viability"
  numeric_readout: 0.215
- compound: "O=c1cc(N2CCOCC2)oc2c(-c3cccc4c3sc3ccccc34)cccc12 + Nc1nc2[nH]cc(CCc3ccc(C(=O)N[C@@H](CCC(=O)O)C(=O)O)cc3)c2c(=O)[nH]1 [Pemetrexed] (partner 0.2 µM)"
  measured_target: "SK-LU-1"
  observation_type: "relative viability"
  numeric_readout: 0.953
- compound: "CCN(CC)CCCCNc1ncc2cc(-c3cc(OC)cc(OC)c3)c(NC(=O)NC(C)(C)C)nc2n1 + Cc1cc(Nc2cc(N3CCN(C)CC3)nc(Sc3ccc(NC(=O)C4CC4)cc3)n2)n[nH]1 [Tozasertib] (partner 0.1 µM)"
  measured_target: "SK-LU-1"
  observation_type: "relative viability"
  numeric_readout: 0.259

// query Give a short answer stating reported relative viability for CCN(CC)CCCCNc1ncc2cc(-c3cc(OC)cc(OC)c3)c(NC(=O)NC(C)(C)C)nc2n1 + Nc1nc2[nH]cc(CCc3ccc(C(=O)N[C@@H](CCC(=O)O)C(=O)O)cc3)c2c(=O)[nH]1 [Pemetrexed] (partner 0.2 µM) .
// result 0.854

====

Tested on: HCC-15
Test: relative viability (nuclei count vs DMSO), 5 days (fraction); higher = more cells survive
Conditions: first compound 2.53 µM
observation_type: relative viability
I'd appreciate a reply containing only the number, no unit.

- molecule: "COc1nc(C)cnc1NS(=O)(=O)c1cccnc1-c1ccc(-c2nnco2)cc1 [Zibotentan] + N=C(N)NC(=N)NCCc1ccccc1 [Phenformin] (partner 250 µM)"
  measured_target: "HCC-15"
  numeric_readout: 0.451
- molecule: "O=c1cc(-c2cccc3c2Sc2ccccc2S3)oc(N2CCOCC2)c1 + Cc1cc(Nc2cc(N3CCN(C)CC3)nc(Sc3ccc(NC(=O)C4CC4)cc3)n2)n[nH]1 [Tozasertib] (partner 0.1 µM)"
  measured_target: "HCC-15"
  numeric_readout: 0.39

Please look at the following molecule next.
// query Give a short answer stating reported relative viability for O=c1cc(-c2cccc3c2Sc2ccccc2S3)oc(N2CCOCC2)c1 + C[C@@H](Oc1cc(-c2cnn(C3CCNCC3)c2)cnc1N)c1c(Cl)ccc(F)c1Cl [Crizotinib] (partner 1 µM) .
// result 0.857

====

Reported values of relative viability for individual entries
Test system: SW 1573
Assay: relative viability (nuclei count vs DMSO), 5 days (fraction); higher = more cells survive
Details: first compound 0.6325 µM
I'd appreciate a reply containing only the number, no unit.

- compound: "COCC1(CO)C(=O)C2CCN1CC2 (stereo unspecified) [PRIMA-1MET] + COc1cccc2cc(-c3nc([C@H]4CC[C@H](C(=O)O)CC4)n4ncnc(N)c34)[nH]c12 [OSI-027] (partner 0.5 µM)"
  numeric_readout: 0.482
- compound: "COCC1(CO)C(=O)C2CCN1CC2 (stereo unspecified) [PRIMA-1MET] + C[C@]1(O)C[C@@H](c2nc(-c3ccc4ccc(-c5ccccc5)nc4c3)c3c(N)nccn32)C1 [Linsitinib] (partner 1 µM)"
  numeric_readout: 0.796
- compound: "COCC1(CO)C(=O)C2CCN1CC2 (stereo unspecified) [PRIMA-1MET] + CS(=O)(=O)CCNCc1ccc(-c2ccc3ncnc(Nc4ccc(OCc5cccc(F)c5)c(Cl)c4)c3c2)o1 [Lapatinib] (partner 2 µM)"
  numeric_readout: 1.04
- compound: "COCC1(CO)C(=O)C2CCN1CC2 (stereo unspecified) [PRIMA-1MET] + CC1(C)CCC(c2ccc(Cl)cc2)=C(CN2CCN(c3ccc(C(=O)NS(=O)(=O)c4ccc(N[C@H](CCN5CCOCC5)CSc5ccccc5)c(S(=O)(=O)C(F)(F)F)c4)cc3)CC2)C1 [Navitoclax] (partner 0.5 µM)"
  numeric_readout: 0.614
- compound: "COCC1(CO)C(=O)C2CCN1CC2 (stereo unspecified) [PRIMA-1MET] + Cc1nc(Nc2ncc(C(=O)Nc3c(C)cccc3Cl)s2)cc(N2CCN(CCO)CC2)n1 [Dasatinib] (partner 0.075 µM)"
  numeric_readout: 0.411

// query For SW 1573, give relative viability of the listed compound: COCC1(CO)C(=O)C2CCN1CC2 (stereo unspecified) [PRIMA-1MET] + N=C(N)NC(=N)NCCc1ccccc1 [Phenformin] (partner 250 µM)
// result 0.291

====

Reported values of relative viability for individual entries
Test system: LCLC-97TM1
Assay: relative viability (nuclei count vs DMSO), 5 days (fraction); higher = more cells survive
Settings: first compound 0.03162 µM
I'd appreciate a reply containing only the number, no unit.

Completed entries (count: 4):
- molecule: "CCN(CC)CCCCNc1ncc2cc(-c3cc(OC)cc(OC)c3)c(NC(=O)NC(C)(C)C)nc2n1 + C[C@]1(O)C[C@@H](c2nc(-c3ccc4ccc(-c5ccccc5)nc4c3)c3c(N)nccn32)C1 [Linsitinib] (partner 1 µM)"
  numeric_readout: 0.176
- molecule: "O=c1cc(N2CCOCC2)oc2c(-c3cccc4c3sc3ccccc34)cccc12 + Nc1ncn([C@H]2C[C@H](O)[C@@H](CO)O2)c(=O)n1 [Decitabine] (partner 2 µM)"
  numeric_readout: 0.227
- molecule: "O=c1cc(N2CCOCC2)oc2c(-c3cccc4c3sc3ccccc34)cccc12 + COc1cccc2cc(-c3nc([C@H]4CC[C@H](C(=O)O)CC4)n4ncnc(N)c34)[nH]c12 [OSI-027] (partner 0.5 µM)"
  numeric_readout: 0.684
- molecule: "O=c1cc(N2CCOCC2)oc2c(-c3cccc4c3sc3ccccc34)cccc12 + C[C@]1(O)C[C@@H](c2nc(-c3ccc4ccc(-c5ccccc5)nc4c3)c3c(N)nccn32)C1 [Linsitinib] (partner 1 µM)"
  numeric_readout: 0.203

Please look at the following molecule next.
// query Give a short answer stating reported relative viability for CCN(CC)CCCCNc1ncc2cc(-c3cc(OC)cc(OC)c3)c(NC(=O)NC(C)(C)C)nc2n1 + CS(=O)(=O)N1CCN(Cc2cc3nc(-c4cccc5[nH]ncc45)nc(N4CCOCC4)c3s2)CC1 [Pictilisib] (partner 1 µM) .
// result 0.18

====

Reported values of relative viability for individual entries
Tested on: NCI-H727
Test: relative viability (nuclei count vs DMSO), 5 days (fraction); higher = more cells survive
Settings: first compound 1 µM
I'd appreciate a reply containing only the number, no unit.

Completed entries (count: 4):
- compound: "O=c1cc(N2CCOCC2)oc2c(-c3cccc4c3sc3ccccc34)cccc12 + N=C(N)NC(=N)NCCc1ccccc1 [Phenformin] (partner 250 µM)"
  relative viability: 0.581
- compound: "CCN(CC)CCCCNc1ncc2cc(-c3cc(OC)cc(OC)c3)c(NC(=O)NC(C)(C)C)nc2n1 + CS(=O)(=O)N1CCN(Cc2cc3nc(-c4cccc5[nH]ncc45)nc(N4CCOCC4)c3s2)CC1 [Pictilisib] (partner 1 µM)"
  relative viability: 0.41
- compound: "O=c1cc(N2CCOCC2)oc2c(-c3cccc4c3sc3ccccc34)cccc12 + Cc1nc(NC(=O)N2CCC[C@H]2C(N)=O)sc1-c1ccnc(C(C)(C)C(F)(F)F)c1 [Alpelisib] (partner 2 µM)"
  relative viability: 0.541
- compound: "CCN(CC)CCCCNc1ncc2cc(-c3cc(OC)cc(OC)c3)c(NC(=O)NC(C)(C)C)nc2n1 + Cc1nc(Nc2ncc(C(=O)Nc3c(C)cccc3Cl)s2)cc(N2CCN(CCO)CC2)n1 [Dasatinib] (partner 0.075 µM)"
  relative viability: 0.351

// query Give a short answer stating reported relative viability for O=c1cc(N2CCOCC2)oc2c(-c3cccc4c3sc3ccccc34)cccc12 + O=C(c1cc(Cc2n[nH]c(=O)c3ccccc23)ccc1F)N1CCN(C(=O)C2CC2)CC1 [Olaparib] (partner 8 µM) .
// result 0.684

Attribution: the supplement of paper PMC10307832
